Hello, the source for this data is ChEMBL document CHEMBL5665443, in case you need it.

As shown below, each of these molecules has a reported inhibition value.
Target: Methyl-CpG-binding domain protein 4 (Homo sapiens) (UniProt O95243)
Sequence (O95243 whole entry, the tested form may be a part): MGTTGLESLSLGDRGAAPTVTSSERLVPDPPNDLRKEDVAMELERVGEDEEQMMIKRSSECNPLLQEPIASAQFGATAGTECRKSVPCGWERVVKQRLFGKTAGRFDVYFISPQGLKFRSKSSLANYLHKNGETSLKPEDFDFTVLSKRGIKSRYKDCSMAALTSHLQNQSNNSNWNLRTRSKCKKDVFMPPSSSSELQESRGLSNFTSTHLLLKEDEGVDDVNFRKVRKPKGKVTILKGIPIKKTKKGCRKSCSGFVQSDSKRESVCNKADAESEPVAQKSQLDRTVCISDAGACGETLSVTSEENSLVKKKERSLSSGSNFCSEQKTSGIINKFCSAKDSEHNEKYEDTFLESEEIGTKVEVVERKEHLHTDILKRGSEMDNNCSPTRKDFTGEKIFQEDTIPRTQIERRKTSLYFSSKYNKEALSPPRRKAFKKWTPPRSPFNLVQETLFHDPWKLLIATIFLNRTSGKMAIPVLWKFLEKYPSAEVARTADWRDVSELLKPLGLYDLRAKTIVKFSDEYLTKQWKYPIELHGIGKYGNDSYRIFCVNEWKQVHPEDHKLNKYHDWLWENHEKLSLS
Details: Compound Concentration 10.0 uM, Hit No
Description: Inhibition of MBD4 by quantifying inhibition of MBD4-mediated cleavage and dissociation of quenched duplex DNA oligonucleotides, measured as fluorescence at 594 nm. To generate a functional strand incision and increase turn-over this assay is coupled to APE1.
Write the value in % as a bare number.

Recorded results for 3 molecules are shown here.
Endpoint output: inhibition of `COc1cccc2c1c(NS(=O)(=O)c1ccc(Cl)s1)nn2Cc1cccc(CNC(=O)C(C)(C)O)c1` . Value?
19.3

Endpoint output: inhibition of `CC(=O)N1CCC(c2ccc(C(=O)NC3=NCCN3)cc2C(F)(F)F)CC1` . Value?
57

Endpoint output: inhibition of `O=C(O)[C@H]1O[C@H](OP(=O)(O)OP(=O)(O)OC[C@H]2O[C@@H](n3ccc(=O)[nH]c3=O)[C@H](O)[C@@H]2O)[C@H](O)[C@@H](O)[C@@H]1O` . Value?
18.3

New cases:
Endpoint output: inhibition of `O=C(O)COc1cccc(CN(Cc2ccc(-n3cccn3)cc2)S(=O)(=O)c2cccnc2)c1` . Value?
13.1

Endpoint output: inhibition of `Cn1nc(C(F)(F)F)cc1-c1cnc(N2CCc3cc(S(=O)(=O)Nc4c(F)cc(Cl)cc4F)cc(N4CCCC4=O)c32)nc1` . Value?
59.5

Endpoint output: inhibition of `O=c1c(Br)ccc2n1C[C@@H]1CNC[C@H]2C1` . Value?
13.1

Endpoint output: inhibition of CC(Cc1ccc(O)c(O)c1)C(C)Cc1ccc(O)c(O)c1 (stereo not given) . Value?
58.5

Endpoint output: inhibition of `N=C(N)NCCC[C@H](NC(=O)COCC(c1ccccc1)c1ccccc1)C(=O)O` . Value?
-5.83

Endpoint output: inhibition of `CC1CCN(CC[C@H]2CCCN2S(=O)(=O)c2cccc(O)c2)CC1` . Value?
6.36

Endpoint output: inhibition of `N#CC1(c2ccccn2)CCN(Cc2cc(C(=O)N3CCCC3)c(=O)n3ccccc23)CC1` . Value?
68.6

* * *

Target: Uracil-DNA glycosylase (Homo sapiens);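 also: UNG excision on a quenched double-stranded DNA oligo probe, with APE1 added for strand incision and turnover, read as fluorescence at 594 nm as strands separate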
Settings: Compound Concentration 10.0 uM, Hit No
Description: Inhibition of UNG by quantifying inhibition of UNG-mediated cleavage and dissociation of quenched duplex DNA oligonucleotides, measured as fluorescence at 594 nm. To generate a functional strand incision and increase turn-over this assay is coupled to APE1.
As shown below, each of these molecules has a reported inhibition value.
Write the value in % as a bare number.

Recorded results for 4 molecules are shown here.
Find inhibition (Uracil-DNA glycosylase (Homo sapiens)) for the entry CN1CCCC(n2nc(Cc3ccc(Cl)cc3)c3ccccc3c2=O)CC1 (stereo not given)
-8.14

Find inhibition (Uracil-DNA glycosylase (Homo sapiens)) for the entry `CN1CCN(C(=O)C(C)(C)c2ccc(C(=O)Nc3cn4cc(-c5cc(C(C)(C)C)cc(C(C)(C)C)c5)ccc4n3)cc2)CC1`
2.56

Find inhibition (Uracil-DNA glycosylase (Homo sapiens)) for the entry `O=C(O)c1cccc(/C=C2/C[C@@H]3[C@@H](/C=C/[C@H](O)C4CCCCC4)[C@H](O)C[C@@H]3O2)c1`
-4.36

Find inhibition (Uracil-DNA glycosylase (Homo sapiens)) for the entry `O=C(O)c1ccccc1S(=O)(=O)NCCCCN1C(=O)c2cccc3cccc(c23)C1=O`
-8.5

Please find the next molecule below.
Find inhibition (Uracil-DNA glycosylase (Homo sapiens)) for the entry `NC(N)=Nc1nc(CSCC/C(N)=N/S(N)(=O)=O)cs1`
-4.9

* * *

As shown below, each of these molecules has a reported inhibition value.
Target: Methyl-CpG-binding domain protein 4 (Homo sapiens);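 also: MBD4 activity read as fluorescence at 594 nm from cleavage and release of a quenched duplex DNA oligonucleotide, with APE1 coupled to incise the strand and raise turnover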
Conditions: Compound Concentration 1.0 uM, Hit No
Write the value in % as a bare number.

Find inhibition (Methyl-CpG-binding domain protein 4 (Homo sapiens)) for the entry CS(=O)(=O)N1CCCC(NC(=O)[C@H](CCC2CCCCC2)NC(=O)c2ccc(CNC(=O)c3cnc4ccccn34)cc2)C1 (stereo partly drawn)
27.9

Find inhibition (Methyl-CpG-binding domain protein 4 (Homo sapiens)) for the entry `CS(=O)(=O)c1cc(C2(NC(=O)c3cncc4c3cnn4-c3ccc(F)cc3)CC2)ccn1`
53.3

Find inhibition (Methyl-CpG-binding domain protein 4 (Homo sapiens)) for the entry `Nc1cnc(N2CCc3cc(S(=O)(=O)Nc4c(F)cc(Cl)cc4F)cc(N4CCCC4=O)c32)nc1`
55.9

Find inhibition (Methyl-CpG-binding domain protein 4 (Homo sapiens)) for the entry `C[C@@H]1CN(c2cc(-c3n[nH]c4ccc(OC5(C)CC5)cc34)ncn2)C[C@H](C)O1`
12.4

Find inhibition (Methyl-CpG-binding domain protein 4 (Homo sapiens)) for the entry `CC(C)(O)c1ccc(N2Cc3c(ccnc3-c3ccc(F)cc3OCC(F)(F)F)C2=O)cc1`
55.3

New cases:
Find inhibition (Methyl-CpG-binding domain protein 4 (Homo sapiens)) for the entry `COc1ccccc1Nc1nc(-c2nn(Cc3c(F)cc(OCCCO)cc3F)c3ccccc23)ncc1OC`
54.1

Find inhibition (Methyl-CpG-binding domain protein 4 (Homo sapiens)) for the entry `Cc1c(NC(=O)c2cc(C(N)=O)nc3cc(F)ccc23)c(C(F)(F)F)nn1Cc1ccc(C(C)(C)C)cc1`
59.5

Find inhibition (Methyl-CpG-binding domain protein 4 (Homo sapiens)) for the entry `CCCOc1ccc([C@H]2[C@H](C(=O)O)[C@@H](c3ccc4c(c3)OCO4)CN2CC(=O)Nc2c(CC)cccc2CC)cc1`
70.6

Find inhibition (Methyl-CpG-binding domain protein 4 (Homo sapiens)) for the entry `N#Cc1cnc(Nc2cc(NC[C@H]3CNCCO3)c(C(F)(F)F)cn2)cn1`
13.8

Find inhibition (Methyl-CpG-binding domain protein 4 (Homo sapiens)) for the entry `CC(C)(C)c1cc(NC(=O)Nc2ccc(-c3cn4c(n3)sc3cc(OCCN5CCOCC5)ccc34)cc2)no1`
0.784

Find inhibition (Methyl-CpG-binding domain protein 4 (Homo sapiens)) for the entry `C[C@@H]1CCN(C(=O)CC#N)C[C@@H]1N(C)c1ncnc2[nH]ccc12`
20.6

Find inhibition (Methyl-CpG-binding domain protein 4 (Homo sapiens)) for the entry `C[C@H](NC(=O)c1cn(C2(C#N)CC2)cn1)C(=O)Nc1nc(-c2cccc(-c3ccn(C)n3)c2)cs1`
59.5

Find inhibition (Methyl-CpG-binding domain protein 4 (Homo sapiens)) for the entry `Cc1ccc(C(=O)Nc2cccc(C(F)(F)F)c2)cc1Nc1nc(-c2cccnc2)nc2c1cnn2C`
14.1

* * *

Molecular target: G/T mismatch-specific thymine DNA glycosylase (Homo sapiens) (UniProt Q13569);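 also: human TDG cleavage of quenched duplex DNA oligonucleotides coupled to APE1, strand release read as fluorescence at 594 nm, inhibition of TDG activity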
Sequence (Q13569 whole entry): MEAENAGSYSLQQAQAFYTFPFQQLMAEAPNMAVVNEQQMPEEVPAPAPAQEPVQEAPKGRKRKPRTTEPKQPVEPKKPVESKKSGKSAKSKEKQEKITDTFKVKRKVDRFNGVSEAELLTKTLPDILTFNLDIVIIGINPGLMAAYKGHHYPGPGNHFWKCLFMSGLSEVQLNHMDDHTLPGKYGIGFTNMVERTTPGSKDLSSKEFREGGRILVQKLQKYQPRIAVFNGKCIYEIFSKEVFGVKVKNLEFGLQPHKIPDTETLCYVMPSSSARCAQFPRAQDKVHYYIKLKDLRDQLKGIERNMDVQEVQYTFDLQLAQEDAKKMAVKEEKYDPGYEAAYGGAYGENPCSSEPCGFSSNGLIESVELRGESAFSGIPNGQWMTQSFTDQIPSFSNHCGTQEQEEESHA
Settings: Compound Concentration 1.0 uM, Hit No
Description: Inhibition of TDG by quantifying inhibition of TDG-mediated cleavage and dissociation of quenched duplex DNA oligonucleotides, measured as fluorescence at 594 nm. To generate a functional strand incision and increase turn-over this assay is coupled to APE1.
Hi, to clarify the labels: 1 (yes) covers inhibition from 50% upward, 0 (no) covers anything below 50%.

Answered examples (8):
For this molecule, is measured inhibition 50% or higher? `COc1cccc(-c2nccc3c2CN(c2ccccc2)C3=O)c1`
0 (no)

For this molecule, is measured inhibition 50% or higher? `Cn1cc(-c2[nH]c3cc(NC(=O)[C@H](N)C4CCCCC4)cc4c3c2C=NNC4=O)cn1`
0 (no)

For this molecule, is measured inhibition 50% or higher? `CCN1CCN(c2ccc(Nc3cc(N(C)C(=O)Nc4c(Cl)c(OC)cc(OC)c4Cl)ncn3)cc2)CC1`
0 (no)

For this molecule, is measured inhibition 50% or higher? `COc1cnccc1Nc1nc(-c2nn(Cc3c(F)cc(OCCO)cc3F)c3ccccc23)ncc1OC`
0 (no)

For this molecule, is measured inhibition 50% or higher? `OCCn1cc(-c2ccc3c(c2)CCC3=NO)c(-c2ccncc2)n1`
0 (no)

For this molecule, is measured inhibition 50% or higher? `CN1CCN(C(=O)C(C)(C)c2ccc(C(=O)Nc3cn4cc(-c5cc(C(C)(C)C)cc(C(C)(C)C)c5)ccc4n3)cc2)CC1`
0 (no)

For this molecule, is measured inhibition 50% or higher? `CN1C(=O)[C@@H](N2CCc3cn(Cc4ccccc4)nc3C2=O)COc2ccccc21`
0 (no)

For this molecule, is measured inhibition 50% or higher? `CS(=O)(=O)c1cc(C2(NC(=O)c3cncc4c3cnn4-c3ccc(F)cc3)CC2)ccn1`
1 (yes)

New cases:
For this molecule, is measured inhibition 50% or higher? `CC[C@@H]1[C@H](F)C(=O)N[C@@H]1COc1nccc2cc(C(N)=O)c(OC)cc12`
0 (no)

For this molecule, is measured inhibition 50% or higher? `COCCOc1nc(-c2ccc(Cl)nc2)nc2c1CN(C(=O)c1ncn3ccccc13)CC2`
0 (no)

* * *

As shown below, each of these compounds has a reported inhibition value.
Biological target: Endonuclease 8-like 2 (Homo sapiens) (UniProt Q969S2);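 also: fluorescence at 594 nm reports NEIL2 cutting and release of a quenched double-stranded DNA oligo substrate, reduced signal read as inhibition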
Sequence (Q969S2 whole entry): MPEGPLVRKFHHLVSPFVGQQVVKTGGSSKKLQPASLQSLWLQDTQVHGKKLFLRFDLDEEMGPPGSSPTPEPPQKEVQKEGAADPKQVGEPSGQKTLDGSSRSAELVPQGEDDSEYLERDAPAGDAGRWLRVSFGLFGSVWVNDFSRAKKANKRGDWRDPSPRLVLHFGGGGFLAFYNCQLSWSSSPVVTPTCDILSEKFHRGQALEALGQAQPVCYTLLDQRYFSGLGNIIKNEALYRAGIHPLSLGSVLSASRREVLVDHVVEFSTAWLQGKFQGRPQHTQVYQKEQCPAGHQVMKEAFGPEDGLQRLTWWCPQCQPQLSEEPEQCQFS
Conditions: Compound Concentration 10.0 uM, Hit No
Description: Inhibition of NEIL2 by quantifying inhibition of NEIL2-mediated cleavage and dissociation of quenched duplex DNA oligonucleotides, measured as fluorescence at 594 nm.
Write the value in % as a bare number.

Recorded results for 2 compounds are shown here.
Endpoint output: inhibition of `COc1cc(/C=C/C(=O)NCCn2c(C)cc3ccccc32)cc(OC)c1OC` . Value?
4.49

Endpoint output: inhibition of `CC(=O)C1=C(C)N(c2cccc(C(F)(F)F)c2)C(=O)N[C@@H]1c1ccc(C#N)nc1` . Value?
3.85

New cases:
Endpoint output: inhibition of `Cc1noc(-c2ccc(-c3ccc(CC(=O)O)cc3)cc2)c1NC(=O)O[C@H](C)c1ccccc1Cl` . Value?
-4.48

Endpoint output: inhibition of COc1cc(O)c(C(CC(=O)N2C[C@H](C)C[C@H](C)C2)c2ccc3c(c2)OCO3)c(OC)c1 (some centres not stated) . Value?
-7.38
